Assay system: Thymidine kinase 2, mitochondrial (Homo sapiens, UniProt O00142)
Sequence (O00142 whole entry): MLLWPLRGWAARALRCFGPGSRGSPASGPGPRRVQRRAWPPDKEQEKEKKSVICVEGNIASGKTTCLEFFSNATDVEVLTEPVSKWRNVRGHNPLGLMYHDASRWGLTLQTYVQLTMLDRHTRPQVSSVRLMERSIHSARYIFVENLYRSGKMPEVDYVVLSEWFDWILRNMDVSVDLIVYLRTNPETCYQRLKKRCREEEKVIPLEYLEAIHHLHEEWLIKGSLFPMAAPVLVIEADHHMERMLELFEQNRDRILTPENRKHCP
Protocol: Inhibition of human fibroblast mitochondrial TK2 using dThd substrate
Readout kind: pIC50
Answers are plain numbers, as −log10 of the molar value.

INPUT: Look up pIC50 of CCCCCCCCCC(=O)O[C@H]1[C@H](O)[C@@H](CO)O[C@H]1n1cc(/C=C/Br)c(=O)[nH]c1=O and report it.
OUTPUT: 4.40

----------
Assay system: Thymidine kinase (Varicella-zoster virus (strain Dumas) (HHV-3) (Human herpesvirus 3))
Sequence (P09250 whole entry): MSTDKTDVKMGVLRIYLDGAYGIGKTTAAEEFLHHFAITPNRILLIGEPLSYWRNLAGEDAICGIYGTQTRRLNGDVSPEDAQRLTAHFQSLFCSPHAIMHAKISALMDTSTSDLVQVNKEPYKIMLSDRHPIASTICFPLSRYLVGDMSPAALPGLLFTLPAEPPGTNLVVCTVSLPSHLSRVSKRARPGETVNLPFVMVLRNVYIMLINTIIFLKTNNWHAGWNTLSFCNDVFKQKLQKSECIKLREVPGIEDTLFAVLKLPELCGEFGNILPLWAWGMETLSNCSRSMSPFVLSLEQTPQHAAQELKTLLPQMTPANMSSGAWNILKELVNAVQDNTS
Protocol: Inhibition of VZV TK assessed as [methyl-3H]dThd phosphorylation
Lab note: cut-off is 100 µM. Strictly less in IC50 is Criterion met. Exactly 100 µM or more is Criterion not met.

Solved cases (8 shown):
CCCCCCCC(=O)O[C@H]1[C@H](O)[C@@H](CO)O[C@H]1n1cnc2c(=O)[nH]c(N)nc21 | Criterion not met
Nc1nc2c(ncn2[C@@H]2O[C@H](CO)[C@@H](O)[C@@H]2O)c(=O)[nH]1 | Criterion not met
CCCCCCCC(=O)Nc1nc2c(ncn2[C@@H]2O[C@H](CO)[C@@H](O)[C@@H]2OC(=O)CCCCCCC)c(=O)[nH]1 | Criterion not met
CCCCC(=O)O[C@H]1[C@H](O)[C@@H](CO)O[C@H]1n1cnc2c(=O)[nH]c(N)nc21 | Criterion not met
O=c1[nH]c(=O)n([C@@H]2O[C@H](CO)[C@@H](O)[C@@H]2O)cc1/C=C/Br | Criterion met
COc1ccc(CC(=O)O[C@H]2[C@H](O)[C@@H](CO)O[C@H]2n2cc(/C=C/Br)c(=O)[nH]c2=O)cc1 | Criterion met
CCCCCCCCCC(=O)N[C@H]1[C@H](O)[C@@H](CO)O[C@H]1n1cc(C)c(=O)[nH]c1=O | Criterion not met
NCCCC(=O)O[C@H]1[C@H](O)[C@@H](CO)O[C@H]1n1cc(/C=C/Br)c(=O)[nH]c1=O | Criterion met

INPUT: # check: IC50 < 100 µM for CC(C)(C)OC(=O)NCCCCCC(=O)O[C@H]1[C@H](O)[C@@H](CO)O[C@H]1n1cc(/C=C/Br)c(=O)[nH]c1=O
OUTPUT: Criterion not met

INPUT: # check: IC50 < 100 µM for CCCCCCCC(=O)O[C@H]1[C@H](O)[C@@H](CO)O[C@H]1n1cc(C)c(=O)[nH]c1=O
OUTPUT: Criterion not met

INPUT: # check: IC50 < 100 µM for Cc1cn([C@@H]2O[C@H](CO)[C@@H](O)[C@@H]2OCc2ccccc2)c(=O)[nH]c1=O
OUTPUT: Criterion not met

INPUT: # check: IC50 < 100 µM for O=C(Cc1ccccc1)O[C@H]1[C@H](O)[C@@H](CO)O[C@H]1n1cc(/C=C/Br)c(=O)[nH]c1=O
OUTPUT: Criterion not met

INPUT: # check: IC50 < 100 µM for CC(C)(C)OC(=O)NCCCCCCCCCCCC(=O)O[C@H]1[C@H](O)[C@@H](CO)O[C@H]1n1cc(/C=C/Br)c(=O)[nH]c1=O
OUTPUT: Criterion not met

INPUT: # check: IC50 < 100 µM for CC(C)(C)OC(=O)NCCCCCCCC(=O)O[C@H]1[C@H](O)[C@@H](CO)O[C@H]1n1cc(/C=C/Br)c(=O)[nH]c1=O
OUTPUT: Criterion not met

INPUT: # check: IC50 < 100 µM for CCCCCCCCO[C@H]1[C@H](O)[C@@H](CO)O[C@H]1n1cc(C)c(=O)n(CCCCCCCC)c1=O
OUTPUT: Criterion not met

INPUT: # check: IC50 < 100 µM for CCCCCCCCn1c(=O)c(C)cn([C@@H]2O[C@H](CO)[C@@H](O)[C@@H]2O)c1=O
OUTPUT: Criterion not met

INPUT: # check: IC50 < 100 µM for CC(C)(C)OC(=O)NCCCC(=O)O[C@H]1[C@H](O)[C@@H](CO)O[C@H]1n1cc(/C=C/Br)c(=O)[nH]c1=O
OUTPUT: Criterion not met

INPUT: # check: IC50 < 100 µM for NCCCCCC(=O)O[C@H]1[C@H](O)[C@@H](CO)O[C@H]1n1cc(/C=C/Br)c(=O)[nH]c1=O
OUTPUT: Criterion met
